Data credit: patent US20130330346A1

# targetEntity: T1, Human CXCR2 (human, UniProt P25025 1-360)
# T1 sequence: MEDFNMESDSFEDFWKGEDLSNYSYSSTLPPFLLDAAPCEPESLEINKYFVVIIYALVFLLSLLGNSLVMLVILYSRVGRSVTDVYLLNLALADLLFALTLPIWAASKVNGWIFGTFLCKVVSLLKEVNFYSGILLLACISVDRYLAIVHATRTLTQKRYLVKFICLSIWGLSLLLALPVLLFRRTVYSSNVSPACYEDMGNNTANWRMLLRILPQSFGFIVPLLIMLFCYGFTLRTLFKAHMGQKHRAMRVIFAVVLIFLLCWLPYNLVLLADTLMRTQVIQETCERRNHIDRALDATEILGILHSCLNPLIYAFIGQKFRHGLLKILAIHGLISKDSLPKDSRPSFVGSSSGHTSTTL
# experimentSummary: cell-based or functional assay
measuredEndpoint: [35S]GTPγS % inhibition of max (IL-8) (%)
Write the value in % as a bare number.

Inquiry: Reported [35S]GTPγS % inhibition of max (IL-8), binder CXCR20014 (bispecific antibody, Biparatopic: two VHH joined by a GlySer linker; also called 97A9-35GS-2B2; 97A9-2B2; not shown: C-terminal c-myc tag and His6 tag coded by pAX100) EVQLVESGGGLVQPGGSLRLSCVASGSIVRINTMGWYRQTPGKQRELVADITSGGNINYIDAVKGRFTISRDNTKNTVYLQMNSLKPEDTAVYYCNAEIVVLVGVWTQRARTGNYWGQGTQVTVSSGGGGSGGGGSGGGGSGGGGSGGGGSGGGGSGGGGSEVQLVESGGELVQPGGSLRLSCAASGSILTINAMGWYRQAPGKQRELVVRRTRGGSTTYQDSVKGRFTISADIAKKTMYLQMNSLKPEDTAVYYCMLDDRGGVYWGQGTQVTVSS : ____
Reply text: 100
